Target: recombinant human cathepsin E (Homo sapiens, UniProt P14091)
Sequence (P14091 54-396): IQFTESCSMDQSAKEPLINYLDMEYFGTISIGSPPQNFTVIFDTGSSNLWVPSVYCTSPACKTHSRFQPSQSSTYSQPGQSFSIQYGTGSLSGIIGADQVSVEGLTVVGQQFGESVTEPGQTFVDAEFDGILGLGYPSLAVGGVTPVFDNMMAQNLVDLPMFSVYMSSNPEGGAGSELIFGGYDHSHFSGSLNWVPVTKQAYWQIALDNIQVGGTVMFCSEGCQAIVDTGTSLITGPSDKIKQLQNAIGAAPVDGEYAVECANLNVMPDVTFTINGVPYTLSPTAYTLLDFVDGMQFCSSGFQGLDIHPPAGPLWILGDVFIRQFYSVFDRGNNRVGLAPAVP
Assay: Cathepsin E fluorescent substrate kinetic assay
Settings: pH 4.5
pIC50: −log10 of the molar value.
Measured Property: pIC50

Below, each entry is followed by its recorded pIC50 result.
C[C@]1(c2cc(NC(=O)c3ncc(C(F)(F)F)cc3Cl)ccc2F)N=C(N)OCC1(F)F; < 3.70
C[C@]1(c2cc(NC(=O)c3ccc(Cl)cn3)ccc2F)N=C(N)OCC1(F)F; 3.96
C[C@]1(c2cc(NC(=O)c3ccc(C#N)cn3)ccc2F)N=C(N)OCC1(F)F; 4.14
CC1(C)OC(N)=N[C@](C)(c2cc(NC(=O)c3ncc(C#N)cc3Cl)ccc2F)C1(F)F; < 3.70
CC1(C)OC(N)=N[C@](C)(c2cc(NC(=O)c3ncc(C(F)(F)F)cc3Cl)ccc2F)C1(F)F; < 3.70
CC1(C)OC(N)=N[C@](C)(c2cc(NC(=O)c3ccc(C#N)cn3)ccc2F)C1(F)F; < 3.70

Prompt line: Lab note: record pIC50 of C[C@]1(c2cc(NC(=O)c3ncc(C#N)cc3Cl)ccc2F)N=C(N)OCC1(F)F tested on recombinant human cathepsin E (Homo sapiens, UniProt P14091).
Response line: < 3.70

* * *

Molecular target: BACE1 (Homo sapiens)
Construct: Human HEK293 cells which are stably transfected with a vector expressing a cDNA of the human APP wt gene (APP695); endogenous in cells
Assay: Cellular Aβ-lowering assay (Aβ40 ELISA)
Settings: HEK293 cells stably expressing human APP695; Aβ40 in culture supernatant; read-out: BACE1 cell act. Aβ40 IC50
Method: Cellular Aβ-Lowering Assay: Human HEK293 cells which are stably transfected with a vector expressing a cDNA of the human APP wt gene (APP695) were used to assess the potency of the compounds in a cellular assay. […] After stopping the reaction with one volume 1 NH2SO4 the reaction was measured in an ELISA reader at 450 nm wavelength. The concentrations of Aβ in the culture supernatants were calculated from a standard curve obtained with known amounts of pure Aβ peptide.
Measured Property: pIC50
Give bare numbers, as −log10 of the molar value.

Below, each entry is followed by its recorded pIC50 result.
C[C@]1(c2cc(NC(=O)c3ccc(OCC(F)(F)F)cn3)ccc2F)N=C(N)OCC1(F)F [Example 14]; 6.54
C[C@@](O)(C(=O)Nc1ccc(F)c([C@@]2(C)N=C(N)OCC2(F)F)c1)C(F)(F)F [Example 76, 2,2,2-trifluoroacetate]; 5.98
C[C@]1(c2cc(NC(=O)c3ccc(OCF)cn3)ccc2F)N=C(N)OCC1(F)F [Example 42]; 7.54
C[C@]1(c2cc(NC(=O)c3ccc(C#N)cn3)ccc2Cl)N=C(N)OCC1(F)F [Example 51]; 7.70
C[C@]1(c2cc(NC(=O)c3ccc(C#CC4CC4)cn3)ccc2F)N=C(N)OCC1(F)F [Example 40]; 6.34
Cc1nc(C(=O)Nc2ccc(F)c([C@@]3(C)N=C(N)OCC3(F)F)c2)co1 [Example 58]; 7.82
CC1(C)OC(N)=N[C@](C)(c2cc(NC(=O)c3cnc(OCC4CC4)cn3)ccc2F)C1(F)F [Example 36]; 5.61
C[C@]1(c2cc(NC(=O)c3ccc([N+](=O)[O-])o3)ccc2F)N=C(N)OCC1(F)F [Example 81]; 5.72

# per-item lookup of pIC50; items listed below
1. Cc1cn[nH]c1C(=O)Nc1ccc(F)c([C@@]2(C)N=C(N)OCC2(F)F)c1 [Example 66]
2. C[C@]1(c2cc(NC(=O)c3cnc(C(F)(F)F)cn3)ccc2F)N=C(N)OCC1(F)F [Example 17]
3. C[C@]1(c2cc(NC(=O)c3ncc(Cl)cn3)ccc2F)N=C(N)OCC1(F)F [Example 12]
4. Cc1conc1C(=O)Nc1ccc(F)c([C@@]2(C)N=C(N)OCC2(F)F)c1 [Example 61]
5. C[C@]1(c2cc(NC(=O)c3cnc(OCC4CC4)cn3)ccc2F)N=C(N)OCC1(F)F [Example 46]
6. CC1(C)OC(N)=N[C@](C)(c2cc(NC(=O)c3ccc(Cl)cn3)ccc2F)C1(F)F [Example 19]

Response line:
6.21
7.07
7.64
6.52
7.15
7.15

# per-item lookup of pIC50; items listed below
1. CCc1nc(C(=O)Nc2ccc(F)c([C@@]3(C)N=C(N)OCC3(F)F)c2)co1 [Example 56]
2. CC1(C)OC(N)=N[C@](C)(c2cc(NC(=O)c3ncc(Cl)cc3F)ccc2F)C1(F)F [Example 24]
3. C[C@]1(c2cc(NC(=O)c3ncccc3OCC(F)(F)F)ccc2F)N=C(N)OCC1(F)F [Example 54]
4. C[C@]1(c2cc(NC(=O)c3ncccc3C(F)(F)F)ccc2F)N=C(N)OCC1(F)F [Example 6]
5. Cc1nc(C(=O)Nc2ccc(F)c([C@@]3(C)N=C(N)OCC3(F)F)c2)c(C(F)(F)F)o1 [Example 60]

Response line:
1: 6.85; 2: 7.92; 3: 6.20; 4: 6.74; 5: 7.06

* * *

Assignment: determine reported IC50 for the given molecules.
Target: BACE1 (Homo sapiens, UniProt P56817)
Construct: Human HEK293 cells which are stably transfected with a vector expressing a cDNA of the human APP wt gene (APP695); endogenous in cells
Sequence (P56817 46-501): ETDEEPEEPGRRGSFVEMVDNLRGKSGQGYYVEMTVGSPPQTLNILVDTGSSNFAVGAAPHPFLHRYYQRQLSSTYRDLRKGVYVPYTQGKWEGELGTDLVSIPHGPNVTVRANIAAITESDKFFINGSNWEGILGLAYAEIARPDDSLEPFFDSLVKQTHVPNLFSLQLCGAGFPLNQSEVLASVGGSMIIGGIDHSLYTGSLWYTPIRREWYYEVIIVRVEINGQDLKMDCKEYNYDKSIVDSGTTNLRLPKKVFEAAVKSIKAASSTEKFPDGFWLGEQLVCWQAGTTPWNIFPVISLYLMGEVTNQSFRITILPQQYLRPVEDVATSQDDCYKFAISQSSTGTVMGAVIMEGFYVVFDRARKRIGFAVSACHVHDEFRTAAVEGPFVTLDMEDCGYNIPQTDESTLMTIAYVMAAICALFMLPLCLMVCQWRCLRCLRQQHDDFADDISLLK
Assay: Cellular Aβ-lowering assay (Aβ40 ELISA)
Conditions: HEK293 cells stably expressing human APP695; Aβ40 in culture supernatant; read-out: BACE1 cell act. Aβ40 IC50
Give bare numbers, in nM.

Below, each entry is followed by its recorded IC50 result.
C[C@]1(c2cc(NC(=O)c3coc(CCl)n3)ccc2F)N=C(N)OCC1(F)F; 73
C[C@]1(c2cccc(NC(=O)c3ccc(Cl)cn3)c2)N=C(N)OCC1(F)F; 9
C[C@]1(c2cc(NC(=O)c3ncc(Cl)cc3F)ccc2F)N=C(N)OCC1(F)F; 9

# per-item lookup of IC50; items listed below
1. C[C@]1(c2cc(NC(=O)c3[nH]ncc3Cl)ccc2F)N=C(N)OCC1(F)F
2. CC1(C)OC(N)=N[C@](C)(c2cc(NC(=O)c3ncc(C(F)(F)F)cc3Cl)ccc2F)C1(F)F

Response line:
404
50

* * *

Assignment: determine reported pIC50 for the given compounds.
Target: BACE1 (Homo sapiens, UniProt P56817)
Construct: Human HEK293 cells which are stably transfected with a vector expressing a cDNA of the human APP wt gene (APP695); endogenous in cells
Assay: Cellular Aβ-lowering assay (Aβ40 ELISA)
Details: HEK293 cells stably expressing human APP695; Aβ40 in culture supernatant; read-out: BACE1 cell act. Aβ40 IC50
Counter-ions that a name gives are not always drawn.
Numbers only, as −log10 of the molar value.

Below, each entry is followed by its recorded pIC50 result.
C[C@]1(c2cc(NC(=O)c3ncc(Cl)cc3Cl)ccc2F)N=C(N)OCC1(F)F [Example 8]; 7.82
CC1(C)OC(N)=N[C@](C)(c2cc(NC(=O)c3ncc(Cl)cc3Cl)ccc2F)C1(F)F [Example 23]; 7.96
Cc1nc(C(=O)Nc2ccc(F)c([C@@]3(C)N=C(N)OCC3(F)F)c2)c(C)o1 [Example 59]; 7.37
CC1(C)OC(N)=N[C@](C)(c2cc(NC(=O)c3ncc(C#N)cc3Cl)ccc2F)C1(F)F [Example 22]; 8.15
Cn1ccc(C(=O)Nc2ccc(F)c([C@@]3(C)N=C(N)OCC3(F)F)c2)n1 [Example 63]; 6.96
C[C@]1(c2cc(NC(=O)c3ccc(C(N)=O)cn3)ccc2F)N=C(N)OCC1(F)F [Example 72]; 6.64
C[C@]1(c2cc(NC(=O)c3ccc(C#N)cn3)cc(F)c2F)N=C(N)OCC1(F)F [Example 49]; 7.59
CC1(C)OC(N)=N[C@](C)(c2cc(NC(=O)c3ncc(C(F)(F)F)cn3)ccc2F)C1(F)F [Example 33]; 7.54
CCc1ocnc1C(=O)Nc1ccc(F)c([C@@]2(C)N=C(N)OCC2(F)F)c1 [Example 69, formate]; 5.83
CC1(C)OC(N)=N[C@](C)(c2cc(NC(=O)c3ccn(C(F)F)n3)ccc2F)C1(F)F [Example 38]; 8.22

# per-item lookup of pIC50; items listed below
1. C[C@]1(c2cc(NC(=O)c3nn(CC(F)(F)F)cc3Cl)ccc2F)N=C(N)OCC1(F)F [Example 78]
2. CC1(C)OC(N)=N[C@](C)(c2cc(NC(=O)c3ccc(OC(F)F)cn3)ccc2F)C1(F)F [Example 27]

Response line:
5.75
7.33
